Experiment: protein stability index of a GFP-peptide fusion (yeast GPS) (PSI 1-4); higher = more stable; sorted into four equal gates, so the index is relative within each strain
Conditions: doa10∆
The entries below are paired with their reported protein stability index.
Please reply with the number alone, leaving off any unit.

LSQLCAVPLQIVSPQSN [RPO21] :: 1.88
AEKSFKPPKNKYKVVRR [SEC65] :: 2.58
DSLTRAVKDQQKYTKEM [SNF2] :: 1.47

Input: I am curious: what protein stability index value has been reported for AKGCEVVVSGKLRAARA [RPS3] ?
Output: 3.15

Input: Try this sequence too: EFTKINTPLVGAAFKVI [YJL039C/NUP192]
Output: 1.63

Input: Try this sequence too: HLSSKTGLHFGRLSLRS [QCR10]
Output: 3.24

Input: Try this sequence too: FSFGAKANEKKESDESK [YJL041W/NSP1]
Output: 2.58

====

Test: protein stability index of a GFP-peptide fusion (yeast GPS) (PSI 1-4); higher = more stable; sorted into four equal gates, so the index is relative within each strain
Conditions: pdr5∆
quantity_name: protein stability index
Please reply with the number alone, leaving off any unit.

Worked examples follow.
THNFKLSGVSNSMDMVD [RGR1] :: 3
TDIEEGMRVGVDRSKYN [RPT1] :: 3.34
NNNDNNNSNTVASSTNF [SWI1] :: 3.09
KSLDEQLLLLSDERAKL [LRP1] :: 3.2
KEKLIGWYHSGPKLRAS [RPN8] :: 2.41
VKSLVDNMITGVTKGYK [RPL9A] :: 3.31

Input: I am curious: what protein stability index value has been reported for LINDSYINDVHLLYPPH [SSN8] ?
Output: 3.14

Input: Try this sequence too: PLLRKVVDRESDIPKTT [PRE4]
Output: 2.46

Input: Try this sequence too: EVTKEEDIIANYASVYP [RRP43]
Output: 2.95

Input: Try this sequence too: IVAQSEVEVSTRDLFDL [RPO31]
Output: 3.34

Input: Try this sequence too: KDTNDHVDKRTKIDQEA [ISW2]
Output: 2.62

Input: Try this sequence too: LSEYDAIQKKDNKDKEG [YOR098C/NUP1]
Output: 3.33

Input: Try this sequence too: LFEIVSNADTNQNSDMK [SRB8]
Output: 2.87

Input: Try this sequence too: RPKCGDCGSALQGISTL [RPL34A]
Output: 1.42

====

The entries below are paired with their reported protein stability index.
Test: protein stability index of a GFP-peptide fusion (yeast GPS) (PSI 1-4); higher = more stable; sorted into four equal gates, so the index is relative within each strain
Conditions: ubr1∆
Please reply with the number alone, leaving off any unit.

Input: I am curious: what protein stability index value has been reported for KEIYTTLGNQMLSAHNI [YJR042W/NUP85] ?
Output: 3.08

Input: Try this sequence too: NNMLYPREDKENNRLLF [RPB9]
Output: 3.25

Input: Try this sequence too: LSESLTKFFDDAKSTPL [RPN9]
Output: 3.12

Input: Try this sequence too: EPIDQNTGIVSSTTGMS [RPT3]
Output: 3.24

Input: Try this sequence too: EKADYEDEMMHEEDQKT [RPN12]
Output: 3.03

====

Experiment: protein stability index of a GFP-peptide fusion (yeast GPS) (PSI 1-4); higher = more stable; sorted into four equal gates, so the index is relative within each strain
Details: pdr5∆
The entries below are paired with their reported protein stability index.
Please reply with the number alone, leaving off any unit.

KIQVVDRHIGCVYSGLI [PRE10] :: 1.7
DSFENYFNQLKPYYFSN [RPN12] :: 2.95
DELELEDAIHIALLTLK [PRE8] :: 3.11
TNIHEPQYINYSSIPSL [SSN2] :: 2.46
MEWPKDMLKYKEDEPVV [ITC1] :: 3.12
SDVLLFQLPTTCVSMAP [RGR1] :: 1.83
KRRVTNLEFNYTKPYPN [SMC2] :: 2.88
EVTIEDALKVVLRTALV [RPS12] :: 3.31

Input: I am curious: what protein stability index value has been reported for EPVKEYTFKTSMRVKPS [YMR129W/POM152] ?
Output: 3.08

Input: Try this sequence too: QQQLVNQMKVAPIPKQL [GAL11]
Output: 2.96

Input: Try this sequence too: LDRISSYTAFSRLTLLL [PRP8]
Output: 1.59

Input: Try this sequence too: IEWAEHHRDSNFPDEDD [SKP1]
Output: 3.17

Input: Try this sequence too: KNTSSMDFLNSMENTPK [GAL11]
Output: 1.67

====

Test: protein stability index of a GFP-peptide fusion (yeast GPS) (PSI 1-4); higher = more stable; sorted into four equal gates, so the index is relative within each strain
Conditions: ubr1∆
The entries below are paired with their reported protein stability index.
Please reply with the number alone, leaving off any unit.

Input: I am curious: what protein stability index value has been reported for LQQICRVRNKDIRKFLD [RPL9A] ?
Output: 2.31

Input: Try this sequence too: PAVKQWDLLPEPIRFLP [SWI1]
Output: 2.53

Input: Try this sequence too: MEELGIVTPVEKAVEEK [RPT3]
Output: 1.47

Input: Try this sequence too: DSSLQPEYFESPLQSSK [YMR129W/POM152]
Output: 2.56

Input: Try this sequence too: NENENFGYDIPLLDIVL [YML103C/NUP188]
Output: 2.56

Input: Try this sequence too: LMLGSVNLPGGILRRKS [RRP4]
Output: 1.4

Input: Try this sequence too: ASYSKYLIDHIKVDGAV [RPL22B]
Output: 2.83

Input: Try this sequence too: PNFNVEIMQQKFPATNV [ECM29]
Output: 2.86

Input: Try this sequence too: TAFALGIACAGKGLQSA [RPN2]
Output: 1.19

====

Experiment: protein stability index of a GFP-peptide fusion (yeast GPS) (PSI 1-4); higher = more stable; sorted into four equal gates, so the index is relative within each strain
Conditions: san1∆
Respond with Satisfied for protein stability index values of 3 and above, Not satisfied for values below.

ITRLCQTLGLESFTEEL [MED1] :: Not satisfied
SVDPQSSSTQNVFVILM [DIS3] :: Not satisfied
LTLLERKWVIFITKHLP [NUT1] :: Not satisfied
PNFDWDLCSSVLSQFER [ROX3] :: Not satisfied
KKLLINKDASLALQRGA [DPB4] :: Not satisfied

Input: Does the reported protein stability index for TPDTKNFFHAKKKDPVN [SNF12] fall at or above the 3 mark?
Output: Satisfied

Input: Try this sequence too: KDKFNQIPLHRAASVGS [NAS6]
Output: Not satisfied

Input: Try this sequence too: LSIAFENGDYAACEKLL [RPN12]
Output: Satisfied

Input: Try this sequence too: NVEPTENAYKSENAPSA [YAR002W/NUP60]
Output: Not satisfied

Input: Try this sequence too: AIRRDARYNWICDPVHK [RPL15A]
Output: Satisfied

Input: Try this sequence too: LKKFRESLVHSALCILK [BRR2]
Output: Not satisfied

Input: Try this sequence too: IRQDVNLGRAVFWEIQS [PRP8]
Output: Not satisfied

Input: Try this sequence too: GIKKHSLWRRTVYSLSQ [YDL116W/NUP84]
Output: Not satisfied

====

Test: protein stability index of a GFP-peptide fusion (yeast GPS) (PSI 1-4); higher = more stable; sorted into four equal gates, so the index is relative within each strain
Conditions: pdr5∆
Respond with 1 (yes) for protein stability index values of 3 and above, 0 (no) for values below.

YPVRIPRLDTSKEFSAY [YJR042W/NUP85] :: 0 (no)
YMRKQVGVGKLNKLYGG [RPS19A] :: 0 (no)

Input: Does the reported protein stability index for DGTAQLSNNKTDEEEQL [YJR042W/NUP85] fall at or above the 3 mark?
Output: 1 (yes)

Input: Try this sequence too: TEGEPKKKRGFLGLFGR [SRP68]
Output: 1 (yes)

====

Assay: protein stability index of a GFP-peptide fusion (yeast GPS) (PSI 1-4); higher = more stable; sorted into four equal gates, so the index is relative within each strain
Conditions: doa10∆
quantity_name: protein stability index
Please reply with the number alone, leaving off any unit.

EEKPGLIITRKAFKNNS [SMC4] :: 2.89

Input: I am curious: what protein stability index value has been reported for HTATDIYQTLIALNLDT [SNF2] ?
Output: 2.11

Input: Try this sequence too: LPLYEKNTLLERLKQLT [SWP82]
Output: 2.71

Input: Try this sequence too: QPHIFNNPKVKTSKRTK [RPS11A]
Output: 2.95

Input: Try this sequence too: LSESLTKFFDDAKSTPL [RPN9]
Output: 3.01

Input: Try this sequence too: KIIPKDISATQLPKQLW [ITC1]
Output: 2.22

Input: Try this sequence too: YTEQFQHYKNNSISSQP [SSN2]
Output: 2.76

Input: Try this sequence too: DNLLEMSDHSLDKLNCA [RRP6]
Output: 3.28
